Assignment: determine reported binding signal for the given binders.
target-or-system: d-enCas12a-Ultra (Acidaminococcus sp., UniProt U2UMQ6 1-1307, E174R;S542R;K548R;M537R;F870L;D908A;E993A;D1235A)
protocol-summary: Spec-seq (native PAGE EMSA with sequencing of bound and unbound); 25 mM Tris-HCl pH 7.4, 150 mM KCl, 5 mM MgCl2, 10% glycerol, 1 mM DTT, 40 ng/uL salmon sperm DNA; 400 nM Cas12a, 480 nM crRNA, 50 nM library, 37 C 1 h; native PAGE at room temperature; high values mean tight binding;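 further: relative affinity from the bound to unbound sequence frequency ratio in Spec-seq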
study-conditions: protein: recombinant
Numbers only, in lnKA.

Could I get binding signal for every one of these entries?
1. GGCC (dsDNA) DNA 1: GCTATCTAGTGCTCAGTACGCACTGGGCCAGGAAACTTCTGGCAGGACCAGGTCATGAGATCGGAAGAGCACACGTCTGAACTCCAGTCA DNA 2: TGACTGGAGTTCAGACGTGTGCTCTTCCGATCTCATGACCTGGTCCTGCCAGAAGTTTCCTGGCCCAGTGCGTACTGAGCACTAGATAGC RNA: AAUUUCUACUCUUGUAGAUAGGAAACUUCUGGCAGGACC
2. AAGG (dsDNA) DNA 1: GCTATCTAGTGCTCAGTACGCACTGAAGGAGGAAACTTCTGGCAGGACCAGGTCATGAGATCGGAAGAGCACACGTCTGAACTCCAGTCA DNA 2: TGACTGGAGTTCAGACGTGTGCTCTTCCGATCTCATGACCTGGTCCTGCCAGAAGTTTCCTCCTTCAGTGCGTACTGAGCACTAGATAGC RNA: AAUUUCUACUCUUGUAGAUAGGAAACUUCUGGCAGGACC

Result string:
1. -0.996
2. -3.49
